Target: Adenosine receptor A2b (Homo sapiens) (UniProt P29275)
Sequence (P29275 whole entry): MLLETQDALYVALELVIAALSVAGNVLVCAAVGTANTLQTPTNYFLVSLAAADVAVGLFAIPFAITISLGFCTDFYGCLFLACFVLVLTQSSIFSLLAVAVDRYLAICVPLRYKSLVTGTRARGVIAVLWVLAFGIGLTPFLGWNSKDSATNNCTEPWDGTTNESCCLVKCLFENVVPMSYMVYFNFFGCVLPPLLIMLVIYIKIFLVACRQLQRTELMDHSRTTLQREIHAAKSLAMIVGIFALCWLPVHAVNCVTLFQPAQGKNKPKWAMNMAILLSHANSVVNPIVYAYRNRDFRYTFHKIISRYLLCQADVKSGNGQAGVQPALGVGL
Assay: Displacement of [3H]DPCPX from human adenosine A2B receptor expressed in HEK293 cells at 1 uM by liquid scintillation counting
Format: cell-based
Experimental Endpoint: inhibition (%)

1. CCCC(=O)Nc1nc(-c2ccccc2)cc(-c2ccccc2)n1
54
2. CC(C)(C)CC(=O)Nc1cc(-c2ccccc2)nc(-c2ccccc2)n1
4
3. CC(C)C(=O)Nc1nc(-c2ccccc2)cc(-c2ccccc2)n1
79
4. O=C(Nc1nc(-c2ccccc2)cc(-c2ccccc2)n1)C1CCCC1
52

====

Catalogue of compounds with associated inhibition
Target: UniProtKB P30542
Sequence (P30542 whole entry): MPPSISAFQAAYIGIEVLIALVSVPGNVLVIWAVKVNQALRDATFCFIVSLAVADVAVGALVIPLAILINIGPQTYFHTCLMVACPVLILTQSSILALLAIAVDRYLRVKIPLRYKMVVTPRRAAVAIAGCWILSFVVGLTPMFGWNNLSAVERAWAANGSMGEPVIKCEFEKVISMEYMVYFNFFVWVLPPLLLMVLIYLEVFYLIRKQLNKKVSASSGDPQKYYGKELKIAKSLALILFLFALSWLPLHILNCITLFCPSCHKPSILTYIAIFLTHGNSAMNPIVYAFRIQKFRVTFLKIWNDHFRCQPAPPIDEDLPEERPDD
Assay: Displacement of [3H]DPCPX from human adenosine A1 receptor expressed in CHO cells at 0.1 uM by liquid scintillation counting
Assay type: cell-based
Experimental Endpoint: inhibition

1. CCCC(=O)Nc1nc(-c2ccco2)cc(-c2ccco2)n1
17%
2. CCC(=O)Nc1nc(-c2ccc(C(C)=O)cc2)cc(-c2ccc(C(C)=O)cc2)n1
1%
3. CCCC(=O)Nc1nc(-c2ccc(Cl)cc2)cc(-c2ccc(Cl)cc2)n1
1%
4. CC(=O)Nc1nc(-c2ccc(C)cc2)cc(-c2ccc(C)cc2)n1
3%
5. CCC(=O)Nc1cc(-c2ccc(OC)cc2OC)nc(-c2ccc(OC)cc2OC)n1
6%
6. CCCC(=O)Nc1cc(-c2ccc(C(C)=O)cc2)nc(-c2ccc(C(C)=O)cc2)n1
2%
7. CC(=O)Nc1cc(-c2ccoc2)nc(-c2ccoc2)n1
1%
8. CC(=O)Nc1nc(-c2ccc(C(C)=O)cc2)cc(-c2ccc(C(C)=O)cc2)n1
7%
9. COc1ccccc1-c1cc(-c2ccccc2OC)nc(NC(C)=O)n1
4%
10. CCC(=O)Nc1cc(-c2ccc(C(F)(F)F)cc2)nc(-c2ccc(C(F)(F)F)cc2)n1
3%
11. CCC(CC)C(=O)Nc1cc(-c2ccc(OC)cc2OC)nc(-c2ccc(OC)cc2OC)n1
1%
12. COc1ccc(-c2cc(NC(C)=O)nc(-c3ccc(OC)cc3OC)n2)c(OC)c1
1%
13. CCCC(=O)Nc1nc(-c2ccc(C(C)=O)cc2)cc(-c2ccc(C(C)=O)cc2)n1
7%
14. CCCC(=O)Nc1nc(-c2ccc(OC)cc2)cc(-c2ccc(OC)cc2)n1
2%
15. CCCC(=O)Nc1nc(-c2ccc(SC)cc2)cc(-c2ccc(SC)cc2)n1
3%
16. CC(=O)Nc1nc(-c2cccs2)cc(-c2cccs2)n1
2%
17. CC(=O)Nc1nc(-c2ccccc2F)cc(-c2ccccc2F)n1
8%
18. CC(=O)Nc1cc(-c2ccc(C(F)(F)F)cc2)nc(-c2ccc(C(F)(F)F)cc2)n1
1%
19. CC(=O)Nc1cc(-c2ccc(F)cc2)nc(-c2ccc(F)cc2)n1
15%
20. CCC(=O)Nc1nc(-c2cccs2)cc(-c2cccs2)n1
24%
21. CCC(=O)Nc1nc(-c2ccoc2)cc(-c2ccoc2)n1
3%
22. CC(=O)Nc1nc(-c2ccoc2)cc(-c2ccoc2)n1
1%
23. CCCC(=O)Nc1cc(-c2ccc(C(F)(F)F)cc2)nc(-c2ccc(C(F)(F)F)cc2)n1
3%
24. CCCC(=O)Nc1cc(-c2ccc(OC)cc2OC)nc(-c2ccc(OC)cc2OC)n1
18%
25. CC(=O)Nc1nc(/C=C/c2ccccc2)cc(/C=C/c2ccccc2)n1
1%
26. CC(=O)Nc1nc(-c2ccccc2)cc(-c2ccccc2)n1
17%
27. COc1ccc(-c2cc(NC(=O)C(C)C)nc(-c3ccc(OC)cc3OC)n2)c(OC)c1
18%
